B1: HTH-type transcriptional regulator MalT (Escherichia coli (strain K12)), P06993 (parent)
chain: MLIPSKLSRPVRLDHTVVRERLLAKLSGANNFRLALITSPAGYGKTTLISQWAAGKNDIGWYSLDEGDNQQERFASYLIAAVQQATNGHCAICETMAQKRQYASLTSLFAQLFIELAEWHSPLYLVIDDYHLITNPVIHESMRFFIRHQPENLTLVVLSRNLPQLGIANLRVRDQLLEIGSQQLAFTHQEAKQFFDCRLSSPIEAAESSRICDDVSGWATALQLIALSARQNTHSAHKSARRLAGINASHLSDYLVDEVLDNVDLATRHFLLKSAILRSMNDALITRVTGEENGQMRLEEIERQGLFLQRMDDTGEWFCYHPLFGNFLRQRCQWELAAELPEIHRAAAESWMAQGFPSEAIHHALAAGDALMLRDILLNHAWSLFNHSELSLLEESLKALPWDSLLENPQLVLLQAWLMQSQHRYGEVNTLLARAEHEIKDIREDTMHAEFNALRAQVAINDGNPDEAERLAKLALEELPPGWFYSRIVATSVLGEVLHCKGELTRSLALMQQTEQMARQHDVWHYALWSLIQQSEILFAQGFLQTAWETQEKAFQLINEQHLEQLPMHEFLVRIRAQLLWAWARLDEAEASARSGIEVLSSYQPQQQLQCLAMLIQCSLARGDLDNARSQLNRLENLLGNGKYHSDWISNANKVRVIYWQMTGDKAAAANWLRHTAKPEFANNHFLQGQWRNIARAQILLGEFEPAEIVLEELNENARSLRLMSDLNRNLLLLNQLYWQAGRKSDAQRVLLDALKLANRTGFISHFVIEGEAMAQQLRQLIQLNTLPELEQHRAQRILREINQHHRHKFAHFDENFVERLLNHPEVPELIRTSPLTQREWQVLGLIYSGYSNEQIAGELEVAATTIKTHIRNLYQKLGVAHRQDAVQHAQQLLKMMGYGV
partner: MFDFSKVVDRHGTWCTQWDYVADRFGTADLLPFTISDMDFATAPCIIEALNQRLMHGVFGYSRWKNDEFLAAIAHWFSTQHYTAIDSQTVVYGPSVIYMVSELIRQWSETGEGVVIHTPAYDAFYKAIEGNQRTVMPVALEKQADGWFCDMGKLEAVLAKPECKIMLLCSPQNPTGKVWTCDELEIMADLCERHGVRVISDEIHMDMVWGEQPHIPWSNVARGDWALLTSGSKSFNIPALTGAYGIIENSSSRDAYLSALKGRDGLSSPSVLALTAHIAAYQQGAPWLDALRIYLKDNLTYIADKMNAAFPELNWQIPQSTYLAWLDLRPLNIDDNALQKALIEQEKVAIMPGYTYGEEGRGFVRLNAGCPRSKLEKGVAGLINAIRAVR

- Variants of: B1
- Conditions: with maly_ecoli malY
Measurement label: effect of a mutation on the interaction

E140A; with no effect
N169A; with no effect
